Just for reference, patent US20130109682A1 is where these values come from.

biological target: KDR kinase (Homo sapiens); test: KDR kinase inhibition assay (LanthaScreen TR-FRET); assay type: biochemical; settings: TR-FRET assay
Sequence (P35968 20-1356): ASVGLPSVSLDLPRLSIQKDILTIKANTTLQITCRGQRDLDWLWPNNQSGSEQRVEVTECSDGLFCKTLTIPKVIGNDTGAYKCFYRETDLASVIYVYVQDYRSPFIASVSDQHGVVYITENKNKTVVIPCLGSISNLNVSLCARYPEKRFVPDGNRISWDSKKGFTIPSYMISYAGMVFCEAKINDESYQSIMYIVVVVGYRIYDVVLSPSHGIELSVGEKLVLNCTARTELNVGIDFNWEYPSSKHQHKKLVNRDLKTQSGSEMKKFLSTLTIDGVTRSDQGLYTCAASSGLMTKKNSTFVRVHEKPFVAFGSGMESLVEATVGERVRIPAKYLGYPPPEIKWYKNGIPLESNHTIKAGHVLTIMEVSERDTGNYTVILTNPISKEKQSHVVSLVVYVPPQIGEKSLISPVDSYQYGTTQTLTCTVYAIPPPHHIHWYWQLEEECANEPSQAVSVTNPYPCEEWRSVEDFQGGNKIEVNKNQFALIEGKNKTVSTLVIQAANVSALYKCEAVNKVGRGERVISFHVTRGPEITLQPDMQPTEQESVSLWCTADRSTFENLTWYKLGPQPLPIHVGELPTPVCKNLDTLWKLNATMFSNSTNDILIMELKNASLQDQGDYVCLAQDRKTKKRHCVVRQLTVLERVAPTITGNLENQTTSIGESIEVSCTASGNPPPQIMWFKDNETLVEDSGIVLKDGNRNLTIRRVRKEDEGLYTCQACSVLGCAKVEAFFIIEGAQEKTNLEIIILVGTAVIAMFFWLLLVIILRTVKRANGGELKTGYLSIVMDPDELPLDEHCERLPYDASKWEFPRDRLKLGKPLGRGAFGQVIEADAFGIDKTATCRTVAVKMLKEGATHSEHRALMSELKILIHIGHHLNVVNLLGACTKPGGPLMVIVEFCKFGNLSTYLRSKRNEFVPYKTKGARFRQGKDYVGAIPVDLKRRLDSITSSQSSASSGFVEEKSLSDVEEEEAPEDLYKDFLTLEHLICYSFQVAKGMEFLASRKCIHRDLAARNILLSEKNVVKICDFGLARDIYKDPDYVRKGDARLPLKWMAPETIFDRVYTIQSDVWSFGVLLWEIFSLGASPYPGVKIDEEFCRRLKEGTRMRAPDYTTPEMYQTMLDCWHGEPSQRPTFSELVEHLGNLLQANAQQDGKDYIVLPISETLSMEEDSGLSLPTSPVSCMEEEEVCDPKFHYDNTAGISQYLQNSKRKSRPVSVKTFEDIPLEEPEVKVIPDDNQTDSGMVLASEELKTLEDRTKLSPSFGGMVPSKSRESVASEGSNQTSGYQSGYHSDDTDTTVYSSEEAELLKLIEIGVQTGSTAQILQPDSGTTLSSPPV
test readout: pIC50
Keep it numeric: pIC50 is minus log10 of the concentration in mol/L.

Some entries whose results are on file:
>>> print(df.to_string())
                  compound_structure_string  reading
0  Nc1ncc(-c2ccccc2)nc1C(=O)Nc1cnccc1[C@H]1C[C@@H](N)[C@H]2CCC[C@H]2O1     7.21
1  Nc1ncc(-c2ccccc2)nc1C(=O)Nc1cnccc1[C@H]1C[C@@H](N)[C@H](O)[C@@H](C2CC2)O1     7.55
2  C[C@@]1(O)[C@@H](N)C[C@@H](c2ccncc2NC(=O)c2nc(-c3ccccc3)cnc2N)OC12CC2     6.66
3  CC[C@@H]1O[C@H](c2ccncc2NC(=O)c2nc(-c3ccccc3)cnc2N)C[C@H](N)[C@H]1O     6.29
4  Nc1ncc(-c2ccccc2)nc1C(=O)Nc1cnccc1[C@@H]1C[C@H](N)[C@@H](O)[C@H](C2CC2)O1     5.64
5  C[C@H]1O[C@@H](c2ccncc2NC(=O)c2nc(-c3ccccc3)cnc2N)C[C@@H](N)[C@]1(C)O     7.42
6  C[C@@]1(O)[C@@H](N)C[C@@H](c2ccncc2NC(=O)c2nc(-c3ccccc3)cnc2N)O[C@H]1C1CC1     5.43
7  CC[C@]1(O)[C@H](N)C[C@H](c2ccncc2NC(=O)c2nc(-c3ccccc3)cnc2N)O[C@@H]1C     7.38
8  CC[C@H]1O[C@@H](c2ccncc2NC(=O)c2nc(-c3ccccc3)cnc2N)C[C@@H](N)[C@@H]1O     7.89
9  Nc1ncc(-c2ccccc2)nc1C(=O)Nc1cnccc1[C@H]1C[C@@H](N)[C@@]2(O)CCCC[C@H]2O1     7.40

**Q:** What value of pIC50 has been recorded for this entry: C[C@]1(O)[C@H](N)C[C@H](c2ccncc2NC(=O)c2nc(-c3ccccc3)cnc2N)OC12CC2
**A:** 6.60

**Q:** What value of pIC50 has been recorded for this entry: CC(C)(C)[C@@H]1O[C@H](c2ccncc2NC(=O)c2nc(-c3ccccc3)cnc2N)C[C@H](N)[C@H]1O
**A:** 5.19

**Q:** What value of pIC50 has been recorded for this entry: Nc1ncc(-c2ccccc2)nc1C(=O)Nc1cnccc1[C@@H]1C[C@H](N)[C@@H]2CCC[C@@H]2O1
**A:** 5.52

**Q:** What value of pIC50 has been recorded for this entry: C[C@@]1(O)[C@H](N)C[C@@H](c2ccncc2NC(=O)c2nc(-c3ccccc3)cnc2N)OC12CC2
**A:** 7.55

* * *

molecular target: PIM3 (Homo sapiens, UniProt Q86V86); experiment: KinaseGlo Pim3 ATP depletion assay; assay type: biochemical
Documented IC50 across a set of molecules
Put down the number, then write its unit next to it.

Some entries whose results are on file:
>>> df
                                   molecule                               system  test_readout  reading
0  C[C@H]1O[C@@H](c2ccncc2NC(=O)c2nc(-c3c(F)cccc3F)ncc2N)C[C@@H](O)[C@]1(C)O  PIM3 (Homo sapiens, UniProt Q86V86)          IC50   5.1 nM
1  C[C@H]1O[C@@H](c2ccncc2NC(=O)c2nc(-c3nccs3)ccc2N)C[C@@H](O)[C@]1(C)O  PIM3 (Homo sapiens, UniProt Q86V86)          IC50  18.5 nM

**Q:** What value of IC50 has been recorded for this entry: C=C[C@H]1OC(c2ccncc2NC(=O)c2nc(-c3ccccc3)ncc2N)=C[C@@H](O)[C@@H]1O
**A:** 9 nM

**Q:** What value of IC50 has been recorded for this entry: C[C@@H]1O[C@H](c2ccncc2NC(=O)c2csc(-c3c(F)cccc3F)n2)[C@@H](F)[C@H](O)[C@@]1(C)O (stereo in doubt)
**A:** 19 nM

**Q:** What value of IC50 has been recorded for this entry: C=C[C@H]1OC(c2ccncc2NC(=O)c2nc(-c3ccccc3F)c(F)cc2N)=C[C@@H](O)[C@@H]1O
**A:** 4 nM

**Q:** What value of IC50 has been recorded for this entry: CC[C@]1(O)[C@H](O)C[C@H](c2ccncc2NC(=O)c2nc(-c3c(F)cccc3F)c(F)cc2N)O[C@@H]1C
**A:** 1 nM

**Q:** What value of IC50 has been recorded for this entry: Nc1cnc(-c2c(F)cccc2F)nc1C(=O)Nc1cnccc1[C@H]1C[C@@H](O)[C@@]2(O)CCCC[C@H]2O1
**A:** 3.1 nM

* * *

biological target: PIM1 (Homo sapiens, UniProt P11309); assay: KinaseGlo Pim1 ATP depletion assay; assay type: biochemical
Sequence (P11309 whole entry): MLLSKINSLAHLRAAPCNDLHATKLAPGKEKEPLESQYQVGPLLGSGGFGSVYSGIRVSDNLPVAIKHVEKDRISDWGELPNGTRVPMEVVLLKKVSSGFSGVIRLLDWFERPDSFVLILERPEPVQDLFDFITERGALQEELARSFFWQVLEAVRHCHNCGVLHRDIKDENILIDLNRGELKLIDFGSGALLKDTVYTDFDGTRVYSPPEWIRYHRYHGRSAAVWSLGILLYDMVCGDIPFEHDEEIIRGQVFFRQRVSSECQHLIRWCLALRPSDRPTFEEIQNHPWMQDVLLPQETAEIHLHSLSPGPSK
test readout: pIC50
Keep it numeric: pIC50 is minus log10 of the concentration in mol/L.

In [3]: df
Out[3]:
                                   molecule  test_readout  reading
0  C[C@H]1O[C@@H](c2ccncc2NC(=O)c2ccc(F)c(-c3c(F)cccc3F)n2)C[C@@H](N)[C@@H]1O         pIC50     8.70
1  O=C(Nc1cnccc1[C@@H]1C[C@H](O)[C@]2(O)CCCC[C@@H]2O1)c1c[nH]cc(-c2ccccc2)c1=O         pIC50     5.08
2  C=C[C@H]1OC(c2ccncc2NC(=O)c2ccnc(-c3c(F)cccc3F)n2)=C[C@@H](O)[C@@H]1O         pIC50     8.22
3  C[C@@H]1O[C@H](c2ccncc2NC(=O)c2ccc(F)c(-c3c(F)cccc3F)n2)[C@@H](O)[C@H](O)[C@@]1(C)O (stereo in doubt)         pIC50     8.70

**Q:** What value of pIC50 has been recorded for this entry: C[C@H]1C[C@@H](N)C[C@@H](c2ccncc2NC(=O)c2csc(-c3c(F)cccc3F)n2)O1
**A:** 9.00

**Q:** What value of pIC50 has been recorded for this entry: CC(C)NC(=O)c1ccc(F)c(-c2cccc(C(=O)Nc3cnccc3[C@H]3C[C@@H](O)[C@](C)(O)[C@@H](C)O3)n2)c1
**A:** 8.15

**Q:** What value of pIC50 has been recorded for this entry: N#CC[C@H]1O[C@@H](c2ccncc2NC(=O)c2nc(-c3c(F)cccc3F)c(F)cc2N)C[C@@H](O)[C@@H]1O [Example 139]
**A:** 9.00

**Q:** What value of pIC50 has been recorded for this entry: O=C(Nc1cnccc1[C@@H]1C[C@@H](O)[C@H](O)[C@@H](CO)O1)c1ccc(F)c(-c2c(F)cccc2F)n1
**A:** 6.90

**Q:** What value of pIC50 has been recorded for this entry: Nc1ncc(-c2ccccc2)nc1C(=O)Nc1cnccc1[C@@H]1C[C@H](O)[C@]2(O)CCCC[C@@H]2O1
**A:** 7.20

**Q:** What value of pIC50 has been recorded for this entry: C[C@H]1O[C@@H](c2ccncc2NC(=O)c2nc(-c3c(F)cccc3F)c(F)cc2N)C[C@@H](O)[C@]1(C)O
**A:** 9.00

**Q:** What value of pIC50 has been recorded for this entry: C=C[C@H]1OC(c2ccncc2NC(=O)c2nc(-c3ccccc3F)c(F)cc2N)=C[C@@H](O)[C@@H]1O
**A:** 9.00

* * *

target: PIM3 (Homo sapiens, UniProt Q86V86); assay: KinaseGlo Pim3 ATP depletion assay; assay type: biochemical
Criterion: IC50 strictly under 50 nM. Met: Criterion met. Not met: Criterion not met.

Observe how each entry below is paired with its result.
                                   molecule     classification
0  O=C(Nc1cnccc1[C@@H]1C[C@H](O)CC2(CC2)O1)c1csc(-c2c(F)cccc2F)n1      Criterion met
1  N#C[C@H]1O[C@@H](c2ccncc2NC(=O)c2ccc(F)c(-c3c(F)cccc3F)n2)C[C@@H](O)[C@@H]1O      Criterion met
2  C=C1[C@H](O)C[C@H](c2ccncc2NC(=O)c2ccc(F)c(-c3c(F)cccc3F)n2)OC12CC2      Criterion met
3  CC[C@]1(O)[C@H](O)C[C@H](c2ccncc2NC(=O)c2c[nH]cc(-c3ccccc3)c2=O)O[C@@H]1C  Criterion not met
4  C[C@H]1OC(c2ccncc2NC(=O)c2nc(-c3c(F)cccc3F)ncc2N)=C[C@@H](O)[C@]1(C)O      Criterion met
5  O=C(Nc1cnccc1[C@H]1C[C@@H](O)CC2(CC2)O1)c1ccc(F)c(-c2c(F)cccc2F)n1      Criterion met
6  N#C[C@H]1O[C@@H](c2ccncc2NC(=O)c2nc(-c3c(F)cccc3F)c(F)cc2N)C[C@@H](O)[C@@H]1O      Criterion met
7  CC[C@H]1O[C@@H](c2ccncc2NC(=O)c2ccc(F)c(-c3c(F)cccc3F)n2)C[C@@H](O)[C@@H]1O      Criterion met
8  C[C@@H]1C[C@H](N)C[C@H](c2ccncc2NC(=O)c2ccc(F)c(-c3c(F)cccc3F)n2)O1      Criterion met
9  Nc1cnc(-c2c(F)cccc2F)nc1C(=O)Nc1cnccc1[C@@H]1C[C@H](O)[C@]2(O)CCCC[C@@H]2O1  Criterion not met

**Q:** Is 50 nM strictly greater than the molecule's reported IC50? molecule: C[C@H]1O[C@@H](c2ccncc2NC(=O)c2cccc(-c3ccccc3F)n2)C[C@@H](O)[C@]1(C)O
**A:** Criterion met

**Q:** Is 50 nM strictly greater than the molecule's reported IC50? molecule: O=C(Nc1cnccc1[C@H]1C[C@@H](O)[C@@]2(O)CCC[C@H]2O1)c1ccnn(-c2ccccc2F)c1=O
**A:** Criterion not met

**Q:** Is 50 nM strictly greater than the molecule's reported IC50? molecule: CC1C(c2ccncc2NC(=O)c2ccc(F)c(-c3c(F)cccc3F)n2)OC(C)[C@@H](O)C1O (stereo in doubt) [Example 64]
**A:** Criterion met
